# tested_system: Histone-lysine N-methyltransferase EHMT2 (Homo sapiens)
# assay_overview: qHTS Assay for Inhibitors of Histone Lysine Methyltransferase G9a; note: nearly all actives have a fitted effect of over 75% in size
# stated_conditions: G9a H3K9 monomethylation, AlphaScreen, 2 h; series mostly up to 59 µM
Screen size: about 350,000 compounds; about 31,000 (8.9%) were called active. Inconclusive results (about 15%) are left out. Calls come from the whole dose curve; as a rule, active = well fitted inhibition curve with a large enough effect; inconclusive = small, poorly fitted or top-dose-only effect; inactive = no such curve, though single readings can be large or run the other way. The list comes from a sample in which actives are over-represented; it also holds close analogues and randomly drawn compounds.
Classes used: active, inactive

1. CCc1nn(CCCC(=O)NCc2ccccc2OC)c(=O)c2cc3occc3n12; inactive
2. COCCNC(=S)Nc1cc(S(=O)(=O)N2CCOCC2)ccc1N1CCCCC1; active
3. Cc1cc(NC(=O)CSc2nc(C(C)C)nc3sc4c(c23)CCC(C)C4)no1 (stereo not given); active
4. COc1cccc(CN2CCc3nc(SCC(=O)Nc4ccccc4)[nH]c(=O)c3C2)c1; inactive
5. Cc1cccc(N2CCN(c3c(CN4CCCC4)c(=O)oc4ccccc34)CC2)c1C; inactive

====

Consider the following molecules and their measured activity, negative = inhibition readings.
# tested_system: Histone-lysine N-methyltransferase EHMT2 (Homo sapiens)
# assay_overview: qHTS Assay for Inhibitors of Histone Lysine Methyltransferase G9a; note: nearly all actives have a fitted effect of over 75% in size; for activity, negative = inhibition: % is set by controls: 0 for no effect and ±100 for the full control effect
# stated_conditions: G9a H3K9 monomethylation, AlphaScreen, 2 h; series mostly up to 59 µM
# Experimental: Methylated lysines, on the N-terminal tails of histone proteins serve as epigenetic markers to recruit factors that can then modify local chromatin structure to lead to functional consequences. […] Methylation of biotinylated-histone peptide is measured through specific antibody-based detection, in conjunction with streptavidin-coated donor and anti-IgG antibody-coated acceptor beads. […]
The campaign covered roughly 350,000 compounds. About 31,000 (8.9%) were called active. About 15% were inconclusive and are not listed. Only a selection was taken, and actives are over-represented in it overall.
reported_endpoint: activity, negative = inhibition

1. CSc1ccccc1OCc1cc(C(=O)N(C)CCc2c(C)n[nH]c2C)no1; 43.1% [at 0.0925 µM] (inactive)
2. O=C(Nc1ncccc1O)c1ccc(C(=O)c2ccccc2)cc1; -9.21% [at 0.501 µM] (inactive)
3. CC(=O)Nc1ccc(NC(=O)CSc2nnc(C3CC3)n2-c2ccccc2)cc1; 5.42% [at 2.33 µM] (inactive)
4. O=C1NCCn2nc3ccccc3c21; 16.4% [at 2.33 µM] (inactive)
5. O=C(O)C1CCCN1S(=O)(=O)c1ccc(Br)cc1 (configuration not stated); -11.1% [at 0.501 µM] (inactive)
6. O=S(=O)(c1ccc(Cl)cc1)c1nc(-c2ccco2)oc1N1CCCCC1; 32.5% [at 12.7 µM] (inactive)
7. C[C@@H]1O[C@@H](OC[C@H]2O[C@@H](Oc3c(-c4ccc(O)cc4)oc4cc(O)cc(O)c4c3=O)[C@H](O)[C@@H](O)[C@@H]2O)[C@H](O)[C@H](O)[C@H]1O; 4.77% [at 12.7 µM] (inactive)
8. COCCN(C(=O)CSCc1ccc(C)cc1)c1c(N)n(CC(C)C)c(=O)[nH]c1=O; 19% [at 12.7 µM] (inactive)
9. CC(C)N(Cc1ccccc1)C(=O)COC(=O)c1ccccc1SCC(=O)N1CCCC1; -46.5% [at 0.501 µM] (inactive)
10. COc1ccccc1N1CCN(CC(=O)Nc2ccnn2C2CCCC2)CC1; 10.3% [at 2.33 µM] (inactive)
11. Cc1ccc(S(=O)(=O)N2[C@@H](c3ccccc3F)C(C(=O)O)=CC[C@H]2c2ccc(Cl)cc2)cc1; -0.77% [at 2.33 µM] (inactive)
12. COc1ccc(Cc2nnc(NC(=O)c3ccc(OC)cc3OC)s2)cc1; -7.06% [at 0.501 µM] (inactive)
13. Cn1c(-c2ccco2)nc2cc3ccccc3cc21; 8.95% [at 0.0925 µM] (inactive)
14. O=C(NCCC1CCCCN1S(=O)(=O)c1ccc(F)cc1)C(=O)NC1CC1 (configuration not stated); 16.1% [at 0.501 µM] (inactive)
15. CC(C(=O)N1CCc2ccccc21)N(C)CC(=O)Nc1ccc(F)cc1 (configuration not stated); 13.8% [at 12.7 µM] (inactive)
16. O=C(Nc1ccccc1F)c1ccc(S(=O)(=O)N2CCCCCC2)cc1; 62.1% [at 12.7 µM] (inactive)
17. CCOc1ccc(NC(=O)c2ccc(NC(=O)COC(=O)c3ccc(NC(=O)CC#N)cc3)cc2)cc1; 12.7% [at 2.33 µM] (inactive)
18. CC1CC(C)CN(C(=O)COC(=O)c2ccc3ncsc3c2)C1 (configuration not stated); -10.9% [at 12.7 µM] (inactive)
19. COc1ccc(S(=O)(=O)N2CCOCC2)cc1NC(=O)CC1CC2CCC1C2 (configuration not stated); 1.4% [at 2.33 µM] (inactive)
20. COc1ccc(C(=O)NC2=NCCS2)c(OC)c1; 5.43% [at 12.7 µM] (inactive)
21. CNC(=O)C(=O)N/N=C/c1ccccn1; -131% [at 12.7 µM] (inactive)
22. COc1ccc2oc(=O)c(C(=O)N3CCN(c4ccccc4F)CC3)cc2c1; 21.4% [at 12.7 µM] (inactive)
23. FC(F)(F)c1cccc(Nc2ncnc3ccccc23)c1; 8.16% [at 12.7 µM] (inactive)
24. O=C(CN1CCN(c2ccccc2O)CC1)NC(=O)NCc1ccccc1; -1.41% [at 12.7 µM] (inactive)
25. O=C(C1CCC1)N1CCN(S(=O)(=O)c2ccc([N+](=O)[O-])cc2)CC1; -3.47% [at 12.7 µM] (inactive)
26. Cc1ccc2nnn(Cc3cccc(C(C)(C)C)c3O)c2c1; 15.4% [at 2.33 µM] (inactive)
27. O=c1c(-c2cccc(Cl)c2)c[nH]n1-c1ccccc1; 3.35% [at 2.33 µM] (inactive)
28. CCC(=O)N1c2ccccc2CC1C(=O)N1CCN(c2ccccc2F)CC1 (configuration not stated); 0.329% [at 12.7 µM] (inactive)
29. COCc1cc(C(C)=O)ccc1OC; -11.9% [at 12.7 µM] (inactive)
30. CCC(NC(=O)c1cc(COc2ccc(F)c(F)c2)on1)c1ccncc1 (configuration not stated); 13.4% [at 12.7 µM] (inactive)
31. CCN(CC(=O)Nc1c(F)cccc1F)C(=O)c1cnc(C)cn1; 9.59% [at 2.33 µM] (inactive)
32. Cn1c(=O)c2sccc2n(Cc2ccc(Br)cc2)c1=O; 4.98% [at 2.33 µM] (inactive)

====

# tested_system: Histone-lysine N-methyltransferase EHMT2 (Homo sapiens)
# assay_overview: qHTS Assay for Inhibitors of Histone Lysine Methyltransferase G9a; note: nearly all actives have a fitted effect of over 75% in size
# stated_conditions: G9a H3K9 monomethylation, AlphaScreen, 2 h; series mostly up to 59 µM
Hit rate of the full screen: of about 350,000 compounds, about 31,000 (8.9%) were called active. About 15% were inconclusive and are not listed. The call rests on the fitted dose curve; in most records, active means well fitted inhibition curve with a large enough effect; inconclusive means small, poorly fitted or top-dose-only effect; inactive means no such curve, though single readings can be large or run the other way. This is one part of a sample in which actives are shown more often than they occur.
Classes used: active, inactive

1) CCOC(=O)CN(Cc1ccc(OC)c(OC)c1)S(=O)(=O)c1ccc(OC)cc1; inactive
2) Cn1nccc1C(=O)NC1CCCc2c1cnn2-c1ccc(F)cc1F (centres undefined); active
3) CN(C(=O)CSc1nnnn1-c1ccccc1)C1CCCCC1; inactive
4) COc1ccc(OCCn2ccnc2C)cc1; active
5) COc1ccc(CCNC(=O)c2cc3cccc4c3n2CC(C)S4)c(OC)c1OC (centres undefined); inactive
6) COc1cc2ccccc2cc1C(=O)Nc1ccc(NC(=O)c2cccs2)cc1; inactive
7) Cc1cc(C(C)(C)C)cc(C)c1N; inactive
8) COC(=O)c1sc2ncccc2c1OCc1ccc(Cl)cc1Cl; inactive
9) Cc1nc2ccccn2c(=O)c1NC(=O)c1c(F)cccc1F; inactive
10) Cc1cc2nc(-c3ccc(NC(=O)c4cc5ccccc5o4)cc3)oc2cc1C; inactive
11) CCc1nn(CC(=O)NCC(C)c2ccccc2)c(=O)c2cc3occc3n12 (centres undefined); inactive
12) COc1ccc(OCCC(=O)c2ccc(OC)cc2)cc1; inactive
13) Cc1cc(/C=N/NC(N)=O)c(C)n1C1CCCCC1; active
14) CCCC12CN3CC(CCC)(CN(C1)C3c1c[nH]c3ccc(OC)cc13)C2=O (centres undefined); inactive
15) COC(=O)c1[nH]c2ccccc2c1NC(=O)CN1CCCc2ccccc21; active
16) O=C(Nc1ccc2nc(SCC(=O)N3CCCc4ccccc43)sc2c1)c1ccc(Cl)cc1; inactive
17) O=C(COC(=O)c1cccs1)NCc1cccs1; inactive
18) NS(=O)(=O)c1cccc(NC(=O)CN2CCCc3ccccc32)c1; active
19) COc1cc(C(=O)OCC(=O)N(CC(C)C)C2CCS(=O)(=O)C2)ccc1OCC(C)C (centres undefined); inactive
20) CC(C)(C)c1ccc(OC2=CS(=O)(=O)c3ccccc32)cc1; inactive
21) CCc1ccccc1NC(=O)N1CCC2(CC1)Oc1ccccc1C(=O)N2Cc1ccccc1F; inactive
22) COc1ccc(C(CCN(Cc2ccc(OC)c(OC)c2)C(=O)CCl)c2ccccc2)cc1 (centres undefined); active
23) CC1Cc2ccccc2N1CC(=O)Nc1ccc(S(N)(=O)=O)cc1 (centres undefined); inactive
24) CN(C(=O)CSc1nncc2ccccc12)C1CCCCC1; active
25) O=C(O)c1ccc(CSc2nc3cccnc3n2Cc2cccc(F)c2)cc1; inactive
26) OC(CNCCc1ccc(Cl)cc1Cl)COc1ccccc1 (centres undefined); active
27) O=c1[nH]c2ccc(S(=O)(=O)N3CCCC3)cc2[nH]1; inactive
28) COc1ccc(-n2nc(C(=O)NCCc3ccc(Cl)cc3)c3c4ccccc4n(C)c3c2=O)cc1Cl; inactive
29) COc1cc(OC)c(OC)cc1/C=C/c1nc2cc3ccccc3cc2c(=O)n1-c1ccc(F)c(Cl)c1; inactive
30) COc1cccc(CNc2nc(C(F)(F)F)nc3ccccc23)c1; inactive
31) Cc1ccc(C(=O)/C=C/c2c(C)nn(-c3ccccc3)c2Cl)cc1; inactive
32) COc1ccc(N(C)C(=O)C2CCN(S(=O)(=O)c3cc(Br)cc4c3N(C(C)=O)CC4)CC2)cc1; inactive
33) COc1ccc(OCC(O)CNC(=O)Nc2ccc(Cl)cc2)cc1 (centres undefined); inactive
34) COc1ccc(CN(C)C(=O)CC(c2ccccc2)c2ccccc2)cc1; inactive
